target_entity: 5-hydroxytryptamine receptor 2A (Mus musculus, UniProt P35363);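 further: CHO-K1 cells with tagged receptor and beta-arrestin; agonist potency measured as compound-induced activation of the receptor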
Sequence (P35363 whole entry): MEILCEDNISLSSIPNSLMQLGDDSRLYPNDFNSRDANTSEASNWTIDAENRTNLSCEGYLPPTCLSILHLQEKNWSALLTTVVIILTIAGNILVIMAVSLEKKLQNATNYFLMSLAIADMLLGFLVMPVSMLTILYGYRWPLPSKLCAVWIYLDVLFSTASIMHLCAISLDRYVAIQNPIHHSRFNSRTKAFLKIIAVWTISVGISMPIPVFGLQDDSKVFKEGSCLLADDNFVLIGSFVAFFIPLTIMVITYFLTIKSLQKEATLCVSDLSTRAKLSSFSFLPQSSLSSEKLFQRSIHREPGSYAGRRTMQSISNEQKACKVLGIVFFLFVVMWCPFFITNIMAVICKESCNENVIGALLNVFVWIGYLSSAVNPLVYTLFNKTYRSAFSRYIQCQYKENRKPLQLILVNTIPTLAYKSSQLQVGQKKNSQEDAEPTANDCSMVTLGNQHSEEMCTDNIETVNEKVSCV
Assay type: functional, cell-based
Calls of active or inactive are those of the source.
Outcomes you can answer with include only these: active, inactive

INSERT INTO results (compound, class_assignment) VALUES
  ('CC(C)C[C@H]1C(=O)N2CCC[C@H]2[C@]2(O)O[C@](NC(=O)C3C=C4c5cccc6[nH]c(Br)c(c56)C[C@H]4N(C)C3)(C(C)C)C(=O)N12 (stereo not given in full)', 'active');

Assay outcome for "Cc1ccccc1CN1CCN(C(=O)c2ccco2)CC1" : what was it?
active

Look up the recorded call for "COc1cc(CN2CCN(c3ncccn3)CC2)cc(OC)c1" in this test.
active

In this assay, the call recorded for "CN1CCc2c(sc(NC(=O)Cc3ccccc3)c2C#N)C1" was what?
inactive

Short answer needed: outcome of this test for "c1ccc(COc2ccc(CN3CCN(c4ccccn4)CC3)cc2)cc1" ?
active

----------
target_entity: Caspase-3 (Homo sapiens);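 further: Dose-response selectivity test against caspase-3 for candidate inhibitors of sentrin-specific proteases (SENPs)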
Sequence (P42574 29-175 limits assumed): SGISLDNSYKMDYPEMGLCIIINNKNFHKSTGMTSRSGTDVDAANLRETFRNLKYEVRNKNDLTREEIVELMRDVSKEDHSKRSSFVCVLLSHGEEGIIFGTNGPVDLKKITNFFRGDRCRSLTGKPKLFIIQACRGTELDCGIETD
Sequence (P42574 176-277 limits assumed): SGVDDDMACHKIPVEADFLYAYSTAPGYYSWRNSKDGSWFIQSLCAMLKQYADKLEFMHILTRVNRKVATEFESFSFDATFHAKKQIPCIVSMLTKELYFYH
Format: functional
Active and inactive are the calls of the source.
API: response.call in yes (active), no (inactive)

Recorded results for 4 compounds are shown here.
INSERT INTO measurements (compound, class_assignment) VALUES
  ('CCOC(=O)C1=C(C)OC2(O)c3ccccc3C(=O)C12O (stereo not given)', 'no'),
  ('Cc1c(NC(=O)c2ccccc2N)cccc1C(=O)O', 'yes'),
  ('O=C(c1cccs1)c1coc2ccc(O)cc12', 'yes'),
  ('Cc1cccc(Nc2nc(-c3ccc(F)c(C)c3)cs2)n1', 'yes');

Could you now consider this next compound?
So what was the verdict on "Cc1c(/C=C/C(=O)c2ccccc2O)cnn1C" in this test?
yes

----------
target_entity: Mitogen-activated protein kinase 10 (Homo sapiens, UniProt P53779)
Sequence (P53779 whole entry): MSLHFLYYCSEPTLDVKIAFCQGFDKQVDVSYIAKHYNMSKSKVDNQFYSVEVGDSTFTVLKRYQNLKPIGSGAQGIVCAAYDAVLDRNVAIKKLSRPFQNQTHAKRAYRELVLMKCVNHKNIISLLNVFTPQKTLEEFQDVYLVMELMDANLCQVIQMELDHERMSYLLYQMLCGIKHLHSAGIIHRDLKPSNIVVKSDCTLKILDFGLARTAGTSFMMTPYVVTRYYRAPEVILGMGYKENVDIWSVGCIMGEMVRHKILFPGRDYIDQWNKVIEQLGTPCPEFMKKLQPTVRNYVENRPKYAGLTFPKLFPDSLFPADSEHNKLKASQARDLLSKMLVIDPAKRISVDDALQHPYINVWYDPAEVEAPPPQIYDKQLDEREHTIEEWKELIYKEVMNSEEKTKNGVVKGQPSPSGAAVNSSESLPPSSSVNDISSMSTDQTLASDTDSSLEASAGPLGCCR
measurement_description: Dose response biochemical screening assay for inhibitors of c-Jun N-Terminal Kinase 3 (JNK3). [Related pubchem assays: 746 ]
property_label: IC50

INSERT INTO assay_data (molecule, property_label, result) VALUES
  ('Cc1cc(NC(=O)COC(=O)c2[nH]nc3ccccc23)no1', 'IC50', '62.7 µM (not active)');

Find the recorded IC50 belonging to "NC(=O)c1oc2ccccc2c1NC(=O)c1ccc(F)cc1" and report it.
23.9 µM (not active)

Recorded IC50 for "COc1cccc(OCC(=O)Nc2ccccc2C(N)=O)c1" , please?
55.2 µM (not active)

IC50 for O=C(CCCn1c(=O)[nH]c2cc(Cl)ccc2c1=O)NCC1CCCO1 (stereo unspecified) ?
> 31 µM (not active)

Request the reported IC50 associated with "CC(=O)Nc1nc(C)c(-c2csc(Nc3ccc(O)cc3)n2)s1"
> 93.1 µM (not active)

For the molecule "CCc1cc(=O)oc2cc(C)cc(OC(=O)c3ccco3)c12" , what IC50 is on record?
> 93.1 µM (not active)

----------
target_entity: Large T antigen (Simian virus 40)
Sequence (P03070 whole entry): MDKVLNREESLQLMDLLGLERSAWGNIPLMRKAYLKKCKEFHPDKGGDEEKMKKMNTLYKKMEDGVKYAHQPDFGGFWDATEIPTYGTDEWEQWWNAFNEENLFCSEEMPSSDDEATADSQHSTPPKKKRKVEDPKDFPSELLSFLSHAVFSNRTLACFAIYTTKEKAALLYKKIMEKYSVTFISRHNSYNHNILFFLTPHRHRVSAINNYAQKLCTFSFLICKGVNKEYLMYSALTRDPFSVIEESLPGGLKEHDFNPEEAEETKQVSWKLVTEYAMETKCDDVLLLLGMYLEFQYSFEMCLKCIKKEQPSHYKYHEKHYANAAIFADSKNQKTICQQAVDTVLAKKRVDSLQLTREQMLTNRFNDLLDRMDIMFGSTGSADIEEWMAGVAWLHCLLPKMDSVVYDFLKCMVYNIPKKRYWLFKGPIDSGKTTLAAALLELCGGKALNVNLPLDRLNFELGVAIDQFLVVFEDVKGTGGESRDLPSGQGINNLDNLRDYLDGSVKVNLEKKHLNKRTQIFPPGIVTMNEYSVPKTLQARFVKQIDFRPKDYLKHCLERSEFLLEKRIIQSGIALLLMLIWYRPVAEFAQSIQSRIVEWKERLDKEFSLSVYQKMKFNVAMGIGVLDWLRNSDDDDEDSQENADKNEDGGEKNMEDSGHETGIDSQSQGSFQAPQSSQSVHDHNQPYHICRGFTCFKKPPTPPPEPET
Type: functional, Betapolyomavirus macacae
Calls of active or inactive are those of the source.
property_label: IC50

INSERT INTO measurements (compound, result) VALUES
  ('O=S(=O)(c1cccs1)N1CCN(c2ccc(O)cc2)CC1', '6.66 µM (active)');

Form: Entry = CC1=NC(=S)NC(c2cccs2)/C1=C(\O)OCC(C)C (stereo not drawn) | System = Large T antigen (Simian virus 40) | IC50 = ____;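 further: Confirmatory-stage PubChem screen for compounds that inhibit SV40 T antigen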
51.4 µM (active)

Lookup: IC50 / Large T antigen (Simian virus 40) / "CCN(CC)c1ccc(NC(=O)c2cnn(CC)c2)cc1"
6.73 µM (active)

Give IC50 (Large T antigen (Simian virus 40)) of the following compound: "Cc1cccc(-n2c3nc(=O)[nH]c(=O)c-3cc3cc([N+](=O)[O-])ccc32)c1"
> 100 µM (active)

What is its IC50 for Large T antigen (Simian virus 40)? Entry: N#CC1=C(N)N=C(S)C(C(N)=O)C1c1ccccc1F (stereo not drawn)
60 µM (active)

Given the entry CC(=O)Nc1ccc(OC(=O)C(CCS(C)(=O)=O)N2C(=O)c3ccccc3C2=O)cc1 (stereo not drawn) , what IC50 was observed with Large T antigen (Simian virus 40)?
8.46 µM (active)

Kindly state the measured IC50 obtained for "O=C(O)CCC(=O)NCCc1c(/C=C2/C(=O)NC(=S)N(Cc3ccc(F)cc3)C2=O)[nH]c2ccccc12" with Large T antigen (Simian virus 40).
55.4 µM (active)

Give recorded IC50 with Large T antigen (Simian virus 40) for the following compound: NS(=O)(=O)c1cc(C(=O)NC2CCSc3ccccc32)ccc1Cl (stereo not drawn)
62.1 µM (active)

----------
target_entity: Aminopeptidase N (Plasmodium falciparum FcB1/Columbia)
Sequence (O96935 whole entry): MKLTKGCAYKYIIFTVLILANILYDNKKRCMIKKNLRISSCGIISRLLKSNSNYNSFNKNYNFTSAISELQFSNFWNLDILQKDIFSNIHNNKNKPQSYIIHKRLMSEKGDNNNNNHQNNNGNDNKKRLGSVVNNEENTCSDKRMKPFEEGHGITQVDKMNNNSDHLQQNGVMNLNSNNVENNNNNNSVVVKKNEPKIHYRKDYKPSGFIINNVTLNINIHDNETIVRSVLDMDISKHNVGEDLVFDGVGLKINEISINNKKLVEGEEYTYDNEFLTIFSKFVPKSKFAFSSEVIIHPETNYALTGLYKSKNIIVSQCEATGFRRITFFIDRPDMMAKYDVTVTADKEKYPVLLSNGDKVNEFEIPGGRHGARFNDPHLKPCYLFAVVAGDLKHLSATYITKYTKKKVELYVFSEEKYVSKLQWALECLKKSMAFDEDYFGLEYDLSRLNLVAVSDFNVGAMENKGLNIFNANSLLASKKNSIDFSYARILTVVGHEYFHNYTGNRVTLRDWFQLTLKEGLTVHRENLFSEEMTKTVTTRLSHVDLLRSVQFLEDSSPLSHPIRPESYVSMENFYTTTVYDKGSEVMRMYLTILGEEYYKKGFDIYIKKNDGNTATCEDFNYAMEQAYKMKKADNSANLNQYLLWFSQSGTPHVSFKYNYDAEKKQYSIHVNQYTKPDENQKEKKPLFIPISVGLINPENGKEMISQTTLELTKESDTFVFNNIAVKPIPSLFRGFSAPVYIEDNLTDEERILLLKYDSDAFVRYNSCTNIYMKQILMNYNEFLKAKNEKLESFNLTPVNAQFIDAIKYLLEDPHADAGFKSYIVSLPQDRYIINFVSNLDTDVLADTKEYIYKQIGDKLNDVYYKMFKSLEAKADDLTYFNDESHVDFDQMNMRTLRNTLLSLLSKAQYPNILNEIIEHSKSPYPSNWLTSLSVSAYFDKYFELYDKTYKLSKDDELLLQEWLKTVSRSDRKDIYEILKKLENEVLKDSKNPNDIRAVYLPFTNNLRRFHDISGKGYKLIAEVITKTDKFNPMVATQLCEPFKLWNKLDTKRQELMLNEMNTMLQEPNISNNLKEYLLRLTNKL
measurement_description: malaria alanyl aminopeptidase activity blockers – biochemical, fluorogenic H-Leu-NHMec substrate, 1536-well (AID 1445)
Design: species or system Plasmodium falciparum 3D7, 3D7
Active and inactive are the calls of the source. Where a SMILES comes first, the peptide text is derived from it. The star is where a group is joined. Boc = CC(C)(C)OC(=O)*; Bn = c1ccc(C*)cc1; NHNH2 = NN*
property_label: IC50

Recorded IC50, per entry:
INSERT INTO assay_data (compound, property_label, result) VALUES
  ('COc1ccc(/C=C(\CC(=O)O)c2nc3ccccc3o2)cc1', 'IC50', '81.5 µM (active)'),
  ('COc1ccc(/C=N/NC(=O)c2cccc(NC(=O)c3ccccc3Cl)c2)cc1OC', 'IC50', '53.9 µM (active)'),
  ('CC(C)CC(NC(=O)C(COCc1ccccc1)NC(=O)OC(C)(C)C)C(=O)NN (stereo not given) (Boc-Ser(Bn)-Leu-NHNH2; configuration not given here)', 'IC50', '81.4 µM (active)'),
  ('Cc1ccc2nc(O)c(C3=NN(C(=O)CCC(=O)O)C(c4cccs4)C3)c(-c3ccccc3)c2c1 (stereo not given)', 'IC50', '68.9 µM (active)');

As a next step, examine the compound that follows.
IC50 for "Cc1cccc(C)c1-n1cccc1/C=C1/C(=N)N2C(=NC1=O)SN=C2S(C)(=O)=O" ?
34.4 µM (active)

----------
target_entity: Short transient receptor potential channel 4 (Mus musculus)
Sequence (Q9QUQ5 whole entry): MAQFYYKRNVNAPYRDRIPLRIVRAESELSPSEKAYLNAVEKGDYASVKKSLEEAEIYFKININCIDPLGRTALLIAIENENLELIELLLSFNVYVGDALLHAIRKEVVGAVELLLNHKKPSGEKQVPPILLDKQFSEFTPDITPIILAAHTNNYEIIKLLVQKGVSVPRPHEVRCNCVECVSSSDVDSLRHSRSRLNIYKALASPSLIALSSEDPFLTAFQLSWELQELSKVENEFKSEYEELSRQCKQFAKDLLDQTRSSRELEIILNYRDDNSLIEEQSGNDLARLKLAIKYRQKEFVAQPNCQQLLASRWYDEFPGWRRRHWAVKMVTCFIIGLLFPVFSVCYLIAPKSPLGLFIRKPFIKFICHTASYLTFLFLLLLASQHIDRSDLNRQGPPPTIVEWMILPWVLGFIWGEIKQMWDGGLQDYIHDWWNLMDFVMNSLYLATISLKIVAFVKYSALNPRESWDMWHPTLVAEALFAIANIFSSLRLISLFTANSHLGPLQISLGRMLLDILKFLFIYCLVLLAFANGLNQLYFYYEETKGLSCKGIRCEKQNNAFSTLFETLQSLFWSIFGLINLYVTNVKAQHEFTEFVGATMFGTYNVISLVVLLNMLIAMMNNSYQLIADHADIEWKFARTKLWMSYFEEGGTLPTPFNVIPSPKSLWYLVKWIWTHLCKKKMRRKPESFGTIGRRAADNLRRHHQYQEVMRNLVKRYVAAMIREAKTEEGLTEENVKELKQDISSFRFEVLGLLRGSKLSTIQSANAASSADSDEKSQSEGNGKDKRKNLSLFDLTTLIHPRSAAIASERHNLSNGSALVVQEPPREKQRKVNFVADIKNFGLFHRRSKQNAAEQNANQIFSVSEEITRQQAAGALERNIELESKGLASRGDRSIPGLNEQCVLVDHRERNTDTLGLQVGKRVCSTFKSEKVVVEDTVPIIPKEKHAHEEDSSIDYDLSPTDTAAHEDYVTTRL
measurement_description: block of DAMGO-driven TRPC4 calcium entry – cell-based, HEK293 TRPC4/mu-opioid, Fluo-4 calcium, dose response (AID 434942);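 further: potency of inhibitors blocking the TRPC4 calcium response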
Type: functional
Active and inactive are the calls of the source.
property_label: EC50

INSERT INTO results (compound, property_label, result) VALUES
  ('CC(=O)Oc1ccc(/C=C(\NC(=O)c2ccco2)C(=O)NCc2ccccc2)cc1', 'EC50', '1.68 µM (active)');

Enter reported EC50 observed with Short transient receptor potential channel 4 (Mus musculus) for "Cc1ccc(Cn2c(Cc3ccccc3)nc3ccccc32)cc1"
0.668 µM (active)

Notebook: pull reported EC50 for Short transient receptor potential channel 4 (Mus musculus), entry COc1cc2c(cc1OC)C(C)N(CCc1ccc(Cl)cc1)CC2 (configuration not stated)
0.105 µM (active)

// map "COc1ccc2nc(C)cc(NCc3ccc(F)cc3)c2c1" to recorded EC50 (system: Short transient receptor potential channel 4 (Mus musculus))
5.96 µM (active)

Notebook: pull reported EC50 for Short transient receptor potential channel 4 (Mus musculus), entry CN1C2C=C(N(CCc3c[nH]c4ccccc34)C(=O)c3ccc(Cl)cc3)CC1CC2 (configuration not stated)
0.211 µM (active)

Checklist item: EC50 tested on Short transient receptor potential channel 4 (Mus musculus), entry "CCN(CC)CCn1c2ccccc2c2cnc(N)c(C#N)c21" , value?
4.73 µM (active)

Param readout= EC50; system= Short transient receptor potential channel 4 (Mus musculus); entry= "CCc1nccc2c1[nH]c1ccccc12" ; returns value.
2.99 µM (active)
